Biological target: human recombinant adrenergic α2A receptor (Homo sapiens, UniProt P08913)
Construct: expressed in transfected cells; host or cells: insect Sf9 cells
Test: Radioligand binding, adrenergic α2A ([3H]MK-912)
Conditions: compound at 0.1 μM; [3H]MK-912; repeat datapoints each shown; 0.1 µM
Description: To evaluate in radioligand binding assays the activity of compounds of the invention, human recombinant adrenergic α2A receptor expressed in insect Sf9 cells (Uhlen, S. et al, J. Pharmacol. Exp. Ther. 271:1558, 1994) in a modified Tris-HCl buffer (50 mM Tris-HCl, pH 7.4, 12.5 mM MgCl2, 2 mM EDTA) was used. […] Receptor proteins were filtered and washed, the filters were then counted to determine [^3H]MK-912 specifically bound. […]
assay.readout: Percentage inhibition of ligand binding, Adrenergic α2A (0.1 μM)

* Cc1ccc2c(c1)c1c(n2CC(O)c2ccc(C#N)nc2)CCN(C)C1 (single isomer, unassigned) [140a] | 11%
* CC(O)(Cn1c2c(c3cc(Cl)ccc31)C1CCCN1CC2)c1cccnc1 (single isomer, unassigned) [II-130a] | 86%
* Cc1ccc2c(c1)c1c(n2CC(OC(=O)c2ccncc2)c2ccncc2)CCN(C)C1 (single isomer, unassigned) [147b] | 36%
* Cc1cnc2c(c1)c1c(n2CC(O)c2ccc(C#N)nc2)CCN(C)C1 (single isomer, unassigned) [II-114a] | 12%
* Cc1ccc2c(c1)c1c(n2CC(O)c2ccc(F)cc2F)CCN(C)CC1 (single isomer, unassigned) [172a] | 18%
* CN1CCc2c(c3cc(Cl)ccc3n2CC(C)(O)c2ccc(C(F)(F)F)nc2)C1 (single isomer, unassigned) [143b] | 0%
* Cc1ccc2c(c1)c1c(n2CNc2ccccn2)CCN(C)C1 | 48%
* Cc1ccc2c(c1)c1c(n2CC(O)c2ccncc2Cl)CCN(C)C1 (single isomer, unassigned) [135b] | 22%
* Cc1ccc2c(c1)c1c(n2CC(O)c2ccc(C(N)=O)nc2)CCN(C)C1 (single isomer, unassigned) [144b] | 4%
* Cc1ccc2c(c1)c1c(n2CC(N)c2ccncc2)CC2CCC1N2C (single isomer, unassigned) [155b] | 5%
* Cc1ccc2c(c1)c1c(n2CC(OC(=O)c2ccncc2)c2ccncc2)CCN(C)C1 (stereo not drawn) [compound 147] | 19%
* Cc1ccc2c(c1)c1c(n2CC(O)c2ccc(C)nc2)CCN2CCCC12 (single isomer, unassigned) [198b] | 44%
* Cc1cnc2c(c1)c1c(n2CCc2ccc(C)nc2)CCN2CCCCC12 (single isomer, unassigned) [IV-8a] | 7%
* CC(O)(Cn1c2c(c3cc(Cl)ccc31)C1CCCN1CC2)c1cccnc1 (single isomer, unassigned) [II-130b] | 15%
* C/C(=C\n1c2c(c3cc(C)ccc31)C1CCCCN1CC2)c1ccc(F)cc1 (single isomer, unassigned) [199a] | 96%

---

Target: human recombinant adrenergic α2B receptor (Homo sapiens, UniProt P18089)
Construct: expressed in transfected cells; host or cells: CHO-K1
Sequence (P18089 whole entry): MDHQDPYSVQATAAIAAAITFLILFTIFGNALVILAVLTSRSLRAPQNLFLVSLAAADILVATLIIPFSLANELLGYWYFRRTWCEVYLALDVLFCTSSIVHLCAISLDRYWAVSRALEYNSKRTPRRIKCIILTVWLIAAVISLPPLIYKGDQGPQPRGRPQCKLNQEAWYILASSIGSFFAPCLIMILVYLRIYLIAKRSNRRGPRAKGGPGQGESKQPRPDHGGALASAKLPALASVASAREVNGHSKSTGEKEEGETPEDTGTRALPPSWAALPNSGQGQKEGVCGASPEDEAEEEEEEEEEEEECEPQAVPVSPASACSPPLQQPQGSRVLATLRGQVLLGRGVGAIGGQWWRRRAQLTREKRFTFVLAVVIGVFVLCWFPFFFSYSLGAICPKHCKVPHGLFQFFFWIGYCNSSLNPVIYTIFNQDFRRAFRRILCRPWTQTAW
Assay: Radioligand binding, adrenergic α2B ([3H]Rauwolscine)
Details: read-out: Percentage inhibition of ligand binding, Adrenergic α2B (0.03 μM), compound at 0.03 μM; [3H]Rauwolscine; repeat datapoints each shown
Method: To evaluate in radioligand binding assays the activity of compounds of the invention, human recombinant adrenergic α2B receptor expressed in Chinese hamster ovary (CHO) K1 cells (Uhlen, S. et al, Eur. J. Pharmacol. 343(1):93, 1998) in a modified Tris-HCl buffer (50 mM Tris-HCl, pH 7.4, 12.5 mM MgCl2, 1 mM EDTA, 0.2% BSA) was used. […] Receptor proteins were filtered and washed, the filters were then counted to determine [3H]Rauwolscine specifically bound. […]
Listed next: entries and their corresponding inhibition at 0.03 µM.
assay.readout: inhibition at 0.03 µM

- CN1CCc2c(c3ncccc3n2CC(O)c2ccncc2)C1 (centres unmarked): -1%
- CN1CCc2c(c3cc(Cl)ccc3n2CC(O)(c2ccc(F)cc2)C2CC2)C1 (centres unmarked): 47%
- Cc1cnc2c(c1)c1c(n2CCc2ccc(C)nc2)CCN(C)C1: 11%
- Cc1ccc2c(c1)c1c(n2CC(O)c2ccnc(C(=O)O)c2)CCN2CCCC12 (centres unmarked): 32%
- Cc1ccc2c(c1)c1c(n2CC(C)(O)c2cnccc2C(=O)O)CCN(C)C1 (centres unmarked): 8%

---

Biological target: human recombinant adrenergic α2A receptor (Homo sapiens, UniProt P08913)
Construct: expressed in transfected cells; host or cells: insect Sf9 cells
Sequence (P08913 1-465): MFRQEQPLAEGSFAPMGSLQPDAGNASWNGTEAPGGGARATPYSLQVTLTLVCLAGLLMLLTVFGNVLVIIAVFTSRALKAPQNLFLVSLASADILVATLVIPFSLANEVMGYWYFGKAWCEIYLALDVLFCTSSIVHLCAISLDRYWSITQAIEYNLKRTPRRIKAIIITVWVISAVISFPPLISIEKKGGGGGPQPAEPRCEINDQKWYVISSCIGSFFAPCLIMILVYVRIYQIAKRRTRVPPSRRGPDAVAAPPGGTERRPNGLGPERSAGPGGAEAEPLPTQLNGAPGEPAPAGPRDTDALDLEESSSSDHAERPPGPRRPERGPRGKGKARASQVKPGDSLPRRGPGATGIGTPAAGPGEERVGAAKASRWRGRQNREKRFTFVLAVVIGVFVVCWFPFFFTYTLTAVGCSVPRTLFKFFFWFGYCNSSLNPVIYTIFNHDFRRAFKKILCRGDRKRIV
Test: Radioligand binding, adrenergic α2A ([3H]MK-912)
Settings: read-out: Percentage inhibition of ligand binding, Adrenergic α2A (0.1 μM), compound at 0.1 μM; [3H]MK-912; repeat datapoints each shown
assay.readout: inhibition at 0.1 µM (%)

* Cc1ccc2c(c1)c1c(n2CC(C)(O)c2cccnc2)CNCC1 (single isomer, unassigned) [128a] | 31
* Cc1ccc2c(c1)c1c(n2CC(CO)c2ccncc2)CCN(C)C1 (stereo not drawn) | -1
* C/C(=C/n1c2c(c3cc(Cl)ccc31)CCN(C)CC2)c1ccc(Cl)cc1Cl | 77
* Cc1cnc2c(c1)c1c(n2CC(O)c2ccc(C#N)cc2)CCNC1 (stereo not drawn) | 3
* Cc1ccc2c(c1)c1c(n2CC(CCO)c2ccncc2)CCN(C)C1 (stereo not drawn) | 22
* Cc1ccc2c(c1)c1c(n2CC(CC(C)(C)O)c2ccncc2)CCN(C)C1 (stereo not drawn) | 4
* CN1CCc2c(c3cc(Cl)ccc3n2CCc2ccccc2)C1 | 90
* Cc1cc(C)c2c(c1)c1c(n2CC(O)c2ccncc2)CCN2CCCC12 (single isomer, unassigned) [II-125b] | 97
* C/C(=C\n1c2c(c3cc(C)ccc31)CCN(C)C2)c1ccc(Cl)cc1 | 52
* Cc1ccc2c(c1)c1c(n2CC(O)c2ccc(C(N)=O)nc2)CCN(C)C1 (single isomer, unassigned) [144b] | 3
* Cc1cnc2c(c1)c1c(n2CCc2ccc(C(N)=O)nc2)CCN2CCCC12 (stereo not drawn) | 19
* Cc1ccc(CCn2c3c(c4c(Br)ccc(Br)c42)CN(C)CC3)cn1 | 81
* Cc1ccc2c(c1)c1c(n2CNc2ccccn2)CCN(C)C1 | 45
* C/C(=C\n1c2c(c3cc(C)ccc31)CN(C)CC2)c1ccncn1 | 14
* Cc1cnc2c(c1)c1c(n2CCc2cccnc2)CCN2CCCC12 (stereo not drawn) [134a] | 4
* CN1CCc2c(c3ncccc3n2CC(C)(O)c2cccnc2)C1 (stereo not drawn) | 4
* C/C(=C\n1c2c(c3cc(C)ccc31)CCN(C)CC2)c1ccncn1 | 6
* Cc1ccc2c(c1)c1c(n2CC(C)(O)c2ccc(C)nc2)CN(C)CC1 (single isomer, unassigned) [196a] | 58
* COCc1ccc(/C(C)=C/n2c3c(c4cc(C)ccc42)CN(C)CC3)cn1 | 12
* CN1CCc2c(c3cc(CO)ccc3n2CC(C)(F)c2cccnc2)C1 (stereo not drawn) | 12
* Cc1ccc2c(c1)c1c(n2CC(C)(O)c2cnccc2Cl)CCN(C)C1 (stereo not drawn) | 27
* Cc1ccc2c(c1)c1c(n2CC(N=[N+]=[N-])c2ccncc2)CCN(C)C1 (racemic) | 35
* Cc1ccc2c(c1)c1c(n2C(C)(C)C(O)c2ccccc2)CCN(C)C1 (stereo not drawn) | 10
* C/C(=C\n1c2c(c3cc(C)ccc31)CCN(C)CC2)c1ccc(Cl)cc1Cl | 66
* Cc1ccc(CCn2c3c(c4ccc(C(F)(F)F)cc42)CN(C)CC3)cn1 | 14
* Cc1ccc(CCn2c3c(c4c(F)ccc(Cl)c42)CN(C)CC3)cn1 | 54
* Cc1cnc2c(c1)c1c(n2CC(O)c2ccc(C#N)cc2)CCN(C)C1 (stereo not drawn) | 6
* C/C(=C\n1c2c(c3cc(C)ccc31)CN(C)CC2)c1cnn(C)c1 | 25
* Cc1ccc2c(c1)c1c(n2CC(C)(N=[N+]=[N-])c2cccnc2)CCN(C)C1 (stereo not drawn) | 40
* C/C(=C\n1c2c(c3cc(C)ccc31)C1CCC(C2)N1C)c1ccc(Cl)cc1Cl (stereo not drawn) | 75
* Cc1ccc2c(c1)c1c(n2CC(O)c2cnc[nH]2)CCN2CCCC12 (stereo not drawn) | 3
* Cc1ccc2c(c1CO)c1c(n2CC(C)(O)c2cccnc2)CCN(C)C1 (stereo not drawn) | 2
* COc1ccc(C(C)(O)Cn2c3c(c4cc(C)ccc42)CN(C)CC3)cc1F (stereo not drawn) | 41
* Cc1cnc2c(c1)c1c(n2CCc2ccncc2)CCN(C)C1 | 7
* CC(O)(Cn1c2c(c3cc(Cl)ccc31)CNCC2)c1cccnc1 (single isomer, unassigned) [175a] | 11
* Cc1cnc2c(c1)c1c(n2CCc2ccc(C)nc2)CC2CCCN2C1 (stereo not drawn) | 3
